Target: NF-IL6 (C/EBPbeta) tryptic core domain bZIP (TCD)
Assay: FP
Details: Kobs, direct titration, normal phosphate backbone
property.name: Kd
Please give the number followed by its unit.

Please report the measured Kd for TGCAGATTGCGCAATCTGCA (double strand) [C/EBPbeta palindromic 20-mer]
10 nM

Recorded values, source patent US20050214772.
